These measurements were taken from patent US11001820B2.

# experimentNotes: Circular dichroism thermal denaturation of collagenous peptides
# Assay type: physicochemical
# assayContext: triple helix thermostability by [θ]225, 0.3° C./min, 1 mg/ml in water
Consider the following substances; for each one, report its Melting temperatures (Tm).
Answers are plain numbers, in °C.

Solved cases (5 shown):
>>> recordedvalue("PROXYL-(POG)6POA(POG)3")
27
>>> recordedvalue("PROXYL-(POG)4POA(POG)5")
29
>>> recordedvalue("^11PROXYL-(POG)3PCG(POG)4")
28
>>> recordedvalue("(POG)4POA(POG)5C-PROXYL")
30
>>> recordedvalue("PROXYL-(POG)3POA(POG)6")
28

Need Melting temperatures (Tm) of `PROXYL-(POG)5POA(POG)4` , thanks.
28
